Method notes: Pharmacokinetic evaluation in Sprague–Dawley rats
Assay type: in vivo
Condition label: male, plasma, iv, rat, i.v. 2 mg/kg
Observation type: Vd (L/kg)
Write the number in L/kg without appending the unit.

Exam item: Record request: Vd value, item COc1ccc(S(=O)(=O)N2CCc3cc(C=CC(=O)NO)ccc32)cc1
Marked response: 25.2

* * *

Tested on: recombinant HDAC1 (Homo sapiens, UniProt Q13547)
Construct: purchased BPS Bioscience Corp. (San Diego, CA, USA)
Sequence (Q13547 whole entry): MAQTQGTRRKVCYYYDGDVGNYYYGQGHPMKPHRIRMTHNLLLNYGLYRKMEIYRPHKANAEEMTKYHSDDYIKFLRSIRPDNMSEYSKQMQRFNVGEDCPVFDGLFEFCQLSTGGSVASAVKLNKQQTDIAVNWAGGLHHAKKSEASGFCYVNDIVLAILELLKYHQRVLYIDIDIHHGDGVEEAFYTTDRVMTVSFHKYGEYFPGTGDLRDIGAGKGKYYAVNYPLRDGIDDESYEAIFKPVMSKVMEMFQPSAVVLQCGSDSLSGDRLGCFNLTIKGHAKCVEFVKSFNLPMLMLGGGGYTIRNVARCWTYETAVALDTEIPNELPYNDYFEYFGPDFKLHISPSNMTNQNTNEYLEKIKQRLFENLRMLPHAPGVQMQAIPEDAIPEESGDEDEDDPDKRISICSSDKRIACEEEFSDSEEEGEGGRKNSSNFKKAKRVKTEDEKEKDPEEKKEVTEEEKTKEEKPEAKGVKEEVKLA
Method notes: Fluorogenic assay kit, recombinant HDAC1 enzyme activity
Format: biochemical
Condition label: mean±S.E.M., three replicate experiments; read-out: IC50 (nM) of HDAC isoforms enzyme, HDAC1
Observation type: IC50 (nM)
Write the number in nM without appending the unit.

Exam item: Query for recombinant HDAC1 (Homo sapiens, UniProt Q13547): what IC50 does the record show for COc1ccc(S(=O)(=O)N2CCc3cc(C=CC(=O)NO)ccc32)cc1 ?
Marked response: 4.62

* * *

Method notes: Pharmacokinetic evaluation in Sprague–Dawley rats
Assay type: in vivo
Condition label: male, plasma, po, rat, p.o. 20 mg/kg
Observation type: half-life (h)
Write the number in h without appending the unit.

Exam item: Record request: half-life value, item COc1ccc(S(=O)(=O)N2CCc3cc(C=CC(=O)NO)ccc32)cc1
Marked response: 9.53

* * *

Method notes: Pharmacokinetic evaluation in Sprague–Dawley rats
Format: in vivo
Condition label: male, plasma, iv, rat, i.v. 2 mg/kg
Observation type: half-life (h)
Write the number in h without appending the unit.

Exam item: Record request: half-life value, item COc1ccc(S(=O)(=O)N2CCc3cc(C=CC(=O)NO)ccc32)cc1
Marked response: 6.74

* * *

Method notes: Pharmacokinetic evaluation in Sprague–Dawley rats
Type: in vivo
Condition label: male, plasma, iv, rat, i.v. 2 mg/kg
Observation type: clearance (mL/min/kg)
Write the number in mL/min/kg without appending the unit.

Exam item: Record request: clearance value, item COc1ccc(S(=O)(=O)N2CCc3cc(C=CC(=O)NO)ccc32)cc1
Marked response: 85.3

* * *

Method notes: Pharmacokinetic evaluation in Sprague–Dawley rats
Format: in vivo
Condition label: male, plasma, po, rat, p.o. 20 mg/kg
Observation type: AUC(0-inf) (ng·h/mL)
Write the number in ng·h/mL without appending the unit.

Exam item: Record request: AUC(0-inf) value, item COc1ccc(S(=O)(=O)N2CCc3cc(C=CC(=O)NO)ccc32)cc1
Marked response: 1260

* * *

Tested on: recombinant HDAC4 (Homo sapiens)
Construct: purchased BPS Bioscience Corp. (San Diego, CA, USA)
Sequence (P56524 627-1084 limits assumed): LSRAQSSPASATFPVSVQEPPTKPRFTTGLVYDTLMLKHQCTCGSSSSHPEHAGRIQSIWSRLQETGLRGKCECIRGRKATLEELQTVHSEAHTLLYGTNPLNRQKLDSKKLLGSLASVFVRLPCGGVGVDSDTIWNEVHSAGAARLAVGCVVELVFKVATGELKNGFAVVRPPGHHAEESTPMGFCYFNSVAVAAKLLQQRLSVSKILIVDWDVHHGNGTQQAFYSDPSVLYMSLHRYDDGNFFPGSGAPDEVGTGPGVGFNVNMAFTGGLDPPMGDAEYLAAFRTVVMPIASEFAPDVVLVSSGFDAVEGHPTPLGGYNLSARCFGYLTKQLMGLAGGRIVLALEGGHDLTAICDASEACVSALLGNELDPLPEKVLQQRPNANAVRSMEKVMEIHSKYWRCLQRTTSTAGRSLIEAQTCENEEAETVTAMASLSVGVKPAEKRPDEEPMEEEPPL
Method notes: Fluorogenic assay kit, recombinant HDAC4 enzyme activity
Type: biochemical
Condition label: three replicate experiments; read-out: IC50 (nM) of HDAC isoforms enzyme, HDAC4
Observation type: IC50

Exam item: Record request: IC50 value, item COc1ccc(S(=O)(=O)N2CCc3cc(C=CC(=O)NO)ccc32)cc1
Marked response: > 10000 nM

* * *

Tested on: recombinant HDAC2 (Homo sapiens, UniProt Q92769)
Construct: purchased BPS Bioscience Corp. (San Diego, CA, USA)
Sequence (Q92769 whole entry): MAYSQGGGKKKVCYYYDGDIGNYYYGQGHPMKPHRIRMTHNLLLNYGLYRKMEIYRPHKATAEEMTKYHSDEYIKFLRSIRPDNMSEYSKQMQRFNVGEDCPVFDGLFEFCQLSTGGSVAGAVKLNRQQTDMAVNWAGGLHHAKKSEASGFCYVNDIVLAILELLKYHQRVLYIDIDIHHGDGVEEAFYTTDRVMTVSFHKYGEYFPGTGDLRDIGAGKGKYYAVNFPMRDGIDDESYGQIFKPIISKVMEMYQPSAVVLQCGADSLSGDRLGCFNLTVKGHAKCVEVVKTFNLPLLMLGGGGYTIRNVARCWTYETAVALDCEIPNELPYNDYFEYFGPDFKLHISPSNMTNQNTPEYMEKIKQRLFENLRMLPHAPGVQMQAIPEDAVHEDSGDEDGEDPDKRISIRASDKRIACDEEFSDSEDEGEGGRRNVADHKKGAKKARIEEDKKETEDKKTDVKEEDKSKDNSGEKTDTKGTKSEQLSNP
Method notes: Fluorogenic assay kit, recombinant HDAC2 enzyme activity
Format: biochemical
Condition label: mean±S.E.M., three replicate experiments; read-out: IC50 (nM) of HDAC isoforms enzyme, HDAC2
Source text: Using kits that contained different recombinant HDAC isoforms, we evaluated the ability of MPT0G009 to inhibit HDAC-mediated deacetylation of lysine residues on the substrates that were provided. […] Fluorogenic HDAC assay kits were used to assess the ability of HDAC inhibitors to inhibit deacetylation of lysine residues on the substrate by recombinant HDAC1, 2, 3, 4, 6 or 8 according to the manufacturer's instructions.
Observation type: IC50 (nM)
Write the number in nM without appending the unit.

Exam item: Query for recombinant HDAC2 (Homo sapiens, UniProt Q92769): what IC50 does the record show for COc1ccc(S(=O)(=O)N2CCc3cc(C=CC(=O)NO)ccc32)cc1 [MPT0G009] ?
Marked response: 5.16
